These measurements were taken from patent US10512634B2.

Molecular target: UniProt:Q9UKV0
Sequence (Q9UKV0 whole entry): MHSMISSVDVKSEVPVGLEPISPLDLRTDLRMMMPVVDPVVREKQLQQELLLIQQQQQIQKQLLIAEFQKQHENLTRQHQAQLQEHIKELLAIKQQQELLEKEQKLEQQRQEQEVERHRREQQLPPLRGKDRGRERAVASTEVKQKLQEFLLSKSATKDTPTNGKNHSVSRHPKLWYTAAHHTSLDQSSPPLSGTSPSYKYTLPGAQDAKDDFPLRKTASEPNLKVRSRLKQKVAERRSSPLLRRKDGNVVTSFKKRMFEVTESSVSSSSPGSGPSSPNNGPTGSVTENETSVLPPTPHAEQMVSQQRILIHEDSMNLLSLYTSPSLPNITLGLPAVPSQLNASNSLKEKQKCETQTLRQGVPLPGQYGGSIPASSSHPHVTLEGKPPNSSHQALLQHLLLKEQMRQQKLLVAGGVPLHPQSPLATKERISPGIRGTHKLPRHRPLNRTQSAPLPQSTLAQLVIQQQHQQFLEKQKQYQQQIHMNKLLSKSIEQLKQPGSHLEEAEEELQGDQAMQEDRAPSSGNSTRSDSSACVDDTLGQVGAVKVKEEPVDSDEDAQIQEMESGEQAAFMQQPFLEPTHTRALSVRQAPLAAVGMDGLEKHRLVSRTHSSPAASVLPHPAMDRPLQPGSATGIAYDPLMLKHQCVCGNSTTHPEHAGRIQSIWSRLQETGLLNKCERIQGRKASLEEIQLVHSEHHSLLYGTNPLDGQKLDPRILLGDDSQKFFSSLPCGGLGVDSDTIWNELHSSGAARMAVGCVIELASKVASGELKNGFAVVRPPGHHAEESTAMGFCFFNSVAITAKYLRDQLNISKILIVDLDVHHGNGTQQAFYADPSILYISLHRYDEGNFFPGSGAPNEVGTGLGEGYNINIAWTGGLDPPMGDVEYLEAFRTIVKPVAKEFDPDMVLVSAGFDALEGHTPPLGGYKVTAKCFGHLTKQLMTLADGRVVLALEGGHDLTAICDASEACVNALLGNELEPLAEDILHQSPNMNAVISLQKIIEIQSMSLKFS
QUANTITY NAME: pIC50
Answers are plain numbers, as −log10 of the molar value.

Record Cc1cc(O)cc(C)c1-c1nc2ccc(C(=O)NO)cc2[nH]1 / UniProt:Q9UKV0, pIC50 recorded as 5.16

###

Can you tell me IC50 for the items I'm about to list?
Target: UniProt Q9UBN7
Test: HDAC in vitro enzymatic assay (fluorescence)
Format: biochemical
Conditions: top concentration 2 μM; read-out: IC50 values for inhibition of HDAC6
Experimental: Biological Tests Method for Measurement of Enzymatic Activity of HDACs Materials & Methods All Examples were tested in HDAC1, 2, 3, 6 and 8 in vitro enzymatic assays. […] After enzymatic reaction, developer was added and after an additional incubation time, fluorescence intensity was measured at an excitation wavelength of 360 nm and an emission wavelength of 460 nm. […]
Structures can show the parent of a compound that is named as a salt.
Answers are plain numbers, in nM.

Each molecule below has a reported value. Please supply its IC50.
1. O=C(NO)c1ccc2nc(-c3ccc(-c4ccc(CN5CCOCC5)cc4)cc3)[nH]c2c1 [Example 190, trifluoroacetate]
2. O=C(NO)c1ccc2nc(-c3ccc(-c4ccccc4F)s3)[nH]c2c1
3. O=C(NO)c1ccc2nc(-c3ccc(-c4ccccc4)s3)[nH]c2c1
4. CC(C)Oc1ccc(-c2nc3ccc(C(=O)NO)cc3[nH]2)cc1
5. C#Cc1ccc(-c2nc3ccc(C(=O)NO)cc3[nH]2)cc1
6. O=C(NO)c1ccc2nc(-c3cccc(OCCOc4ccccc4)c3)[nH]c2c1
7. O=C(NO)c1ccc2nc(-c3ccc(-c4ccccc4F)cc3)[nH]c2c1

Reply |
21
2.9
3.1
12
19
18
19
